Target: Androgen receptor (Homo sapiens)
Assay: qHTS assay to identify small molecule antagonists of the androgen receptor (AR) signaling pathway using the MDA cell line in the presence of 0.5 nM R1881 (AID 1259243); also: nearly all actives have a fitted effect of over 50% in size
Conditions: MDA-kb2 MMTV-luciferase, R1881 0.5 nM, 16 h; series mostly up to 92.4 µM
Results filed as inconclusive are left out. The source made the active and inactive calls. Calls follow the shape of the dose curve; as a rule, active = well fitted inhibition curve with a large enough effect in the repeat runs; inconclusive = weak or mixed curves; inactive = no such curve, though single readings can be large or run the other way.
Labels: yes = active, no = inactive

[[record]]
compound = "C1=CCCC1"
answer_label = "no"

[[record]]
compound = "CCOC(=O)OC(=O)OCC"
answer_label = "no"

[[record]]
compound = "COCCC(=O)OC"
answer_label = "no"

[[record]]
compound = "CC1(C)[C@H](C(=O)OCc2cccc(Oc3ccccc3)c2)[C@@H]1C=C(Cl)Cl"
answer_label = "no"

[[record]]
compound = "C=C(C)CCO"
answer_label = "no"

[[record]]
compound = "CCOC(=O)[C@H](O)[C@@H](O)C(=O)OCC"
answer_label = "no"

[[record]]
compound = "O=C(CCCCCCCCc1cccnc1)N1CCC(C=C(c2ccccc2)c2ccccc2)CC1"
answer_label = "yes"

[[record]]
compound = "C/C=C/C(=O)OCC(C)C"
answer_label = "no"

[[record]]
compound = "CC1CCC(C(C)(C)O)CC1 (configuration not stated)"
answer_label = "no"

[[record]]
compound = "N#Cc1ccc(C/C(=N/NC(=O)Nc2ccc(OC(F)(F)F)cc2)c2cccc(C(F)(F)F)c2)cc1"
answer_label = "no"

[[record]]
compound = "CCc1cccc(C)c1N(C(=O)CS(=O)(=O)O)C(C)COC (configuration not stated)"
answer_label = "no"

[[record]]
compound = "CCOC=C(C(=O)OCC)C(=O)OCC"
answer_label = "no"

[[record]]
compound = "CC(C)C(=O)C(C)C"
answer_label = "no"

[[record]]
compound = "O=C1C=CC(=O)N1c1cccc(N2C(=O)C=CC2=O)c1"
answer_label = "yes"

[[record]]
compound = "CCOC(=O)C1=NN(c2ccc(Cl)cc2Cl)C(C)(C(=O)OCC)C1 (configuration not stated)"
answer_label = "yes"

[[record]]
compound = "O=C1OC2(c3ccccc31)c1ccc(O)c(Br)c1Oc1c2ccc(O)c1Br"
answer_label = "no"

[[record]]
compound = "Clc1ccc2c(Cl)ccnc2c1"
answer_label = "no"

[[record]]
compound = "O=C1CCC(=O)N1"
answer_label = "no"

[[record]]
compound = "C/C=C/C(=O)C1=C(C)C=CCC1(C)C"
answer_label = "no"

[[record]]
compound = "C/C(=N\\[Si](C)(C)C)O[Si](C)(C)C"
answer_label = "no"

[[record]]
compound = "Nc1ccc2c(S(=O)(=O)O)cccc2c1S(=O)(=O)O"
answer_label = "no"

[[record]]
compound = "CC(=O)Nc1ccc(N=Nc2cc(C)ccc2O)cc1"
answer_label = "no"

[[record]]
compound = "Cc1ccc(S(=O)(=O)C(I)I)cc1"
answer_label = "yes"

[[record]]
compound = "NC(=O)C1CO1 (configuration not stated)"
answer_label = "no"

[[record]]
compound = "CC(CC(C)(C)C)CC(C)(C)CC(C)(C)C (configuration not stated)"
answer_label = "no"

[[record]]
compound = "CN(C[C@@H](CC[N+]12CCC(C3CCCCC3)(CC1)CC2)c1ccc(Cl)c(Cl)c1)C(=O)c1cc(C(F)(F)F)cc(C(F)(F)F)c1"
answer_label = "yes"

[[record]]
compound = "Cc1c[nH]c(=O)[nH]c1=O"
answer_label = "no"

